# target.entity: T1, human glycophorin A on human red blood cells or red blood cell membranes (human, UniProt P02724 20-150)
# T1 construct: whole, on cells; also called hRBC; human RBC membranes
# T1 sequence (looked up): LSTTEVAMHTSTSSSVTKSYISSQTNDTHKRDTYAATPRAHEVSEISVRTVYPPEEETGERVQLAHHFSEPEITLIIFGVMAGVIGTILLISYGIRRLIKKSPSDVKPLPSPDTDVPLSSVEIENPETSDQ
# assay.procedure: SPR (Biacore), Fab over human RBC membranes, 1:1 fit;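 also: human RBC membrane preparations captured on an L1 sensor surface, with antibody passed over them as analyte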
Cut-off 0.005 s⁻¹ on koff: below means Met, at or above means Not met.

1. TPP-5840, Hu6C12-24 Fab variant VL: (S24R, A26S, S49A, P54Q, F95Y); VH: (L70M, T72R) (Fab, V domains shown, Built on the parental Fab TPP-4935) VH: EVQLVQSGAEVKKPGASVKVSCKASGYTFTTYTIHWVRQAPGQGLEWIGYINPSSDYTRYNPKFKDRVTMTRDKSTSTAYMELRSLRSDDTAVYYCQTGTRDYWGQGTTVTVSS VL: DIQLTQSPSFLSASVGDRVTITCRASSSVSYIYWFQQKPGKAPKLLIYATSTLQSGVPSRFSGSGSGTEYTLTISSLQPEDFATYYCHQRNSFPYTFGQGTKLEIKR; Met
2. TPP-5702, Hu6C12-24 Fab variant VL: (S24R, A26S, S49A, P54Q, F95Y) (Fab, V domains shown, Built on the parental Fab TPP-4935) VH: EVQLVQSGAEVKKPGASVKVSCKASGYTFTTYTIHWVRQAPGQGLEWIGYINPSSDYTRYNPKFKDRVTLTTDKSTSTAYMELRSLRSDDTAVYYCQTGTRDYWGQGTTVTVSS VL: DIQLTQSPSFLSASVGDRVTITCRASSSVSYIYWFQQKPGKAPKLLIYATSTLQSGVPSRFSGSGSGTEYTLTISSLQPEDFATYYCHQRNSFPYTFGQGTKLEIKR; Not met
3. TPP-5842, Hu6C12-24 Fab variant VL: (S24R, A26S, S49A, P54Q, F95Y); VH: (D66G, L70M, T72R) (Fab, V domains shown, Built on the parental Fab TPP-4935) VH: EVQLVQSGAEVKKPGASVKVSCKASGYTFTTYTIHWVRQAPGQGLEWIGYINPSSDYTRYNPKFKGRVTMTRDKSTSTAYMELRSLRSDDTAVYYCQTGTRDYWGQGTTVTVSS VL: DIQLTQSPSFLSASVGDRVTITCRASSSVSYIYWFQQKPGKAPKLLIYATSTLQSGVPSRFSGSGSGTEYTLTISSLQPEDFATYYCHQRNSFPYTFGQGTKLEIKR; Not met
4. TPP-5836, Hu6C12-24 Fab variant VL: (S24R, A26S, S49A, P54Q, F95Y); VH: (I48M, L70M, T72R) (Fab, V domains shown, Built on the parental Fab TPP-4935) VH: EVQLVQSGAEVKKPGASVKVSCKASGYTFTTYTIHWVRQAPGQGLEWMGYINPSSDYTRYNPKFKDRVTMTRDKSTSTAYMELRSLRSDDTAVYYCQTGTRDYWGQGTTVTVSS VL: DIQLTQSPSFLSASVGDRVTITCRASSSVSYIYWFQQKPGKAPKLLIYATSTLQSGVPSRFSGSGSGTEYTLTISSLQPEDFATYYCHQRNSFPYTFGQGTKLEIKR; Met
5. TPP-5907, humanized and germlined 6C12 Fab; VL: (S24R, A26S, S49A, P54Q, F95Y); VH: (I48M, S54G, D56G, D66G, L70M, T72R) (Fab, V domains shown) VH: EVQLVQSGAEVKKPGASVKVSCKASGYTFTTYTIHWVRQAPGQGLEWMGYINPGSGYTRYNPKFKGRVTMTRDKSTSTAYMELRSLRSDDTAVYYCQTGTRDYWGQGTTVTVSS VL: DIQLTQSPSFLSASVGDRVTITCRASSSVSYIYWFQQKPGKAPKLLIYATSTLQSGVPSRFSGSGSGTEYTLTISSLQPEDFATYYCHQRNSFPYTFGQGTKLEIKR; Met
